Experimental details: label from the status in PepcDB records
Assay readout: protein production

1) MKLAKLIPKRFFIRSKDRSTVSKSPTAFSFGSASSSSGQDCKNSGGDGGGGSVTPTSILPEVPSPYSYVEILQAFKLIDRDNDGAVSRHDLESLLSRLGPDPLTEEEINVMLKEVDCDGDGTIRLEELASRVVSLDPARDSTELKETFEFFDADRDGLISADELLRVFSTIGDERCTLDDCKRMIADVDEDGDGFVCFTEFSRMMDLQR
failed
2) MSDSAEMQQPELLLKSMNKLNGYHPQLIIPKKTLFKCDLDDKQSRLQVSSMHMENSGFLTEDEKRTIEAQKMKKRRTAGLRVAFIDPESQQYVLELHKWTKSYAFVKGWNKVVDKNDKTFKVGDVFSLWVFRCGGVNPVHDGVNLSGGHADSVVDGLEQGSLCFVLVPAKVSVHDGNLPQDSGHDGHNDNLPQDSVEPSSFFDESYELNHLFFDQEDSQGYLPDEDEDFGFNDDGSIRDSGHYQ
failed

---

Experimental details: label from the status in PepcDB records
Assay readout: protein production

1. MTGTLLSFGHGYTARVLSRALAPQGWRIIGTSRNPDQMEAIRASGAEPLLWPGEEPSLDGVTHLLISTAPDSGGDPVLAALGDQIAARAAQFRWVGYLSTTAVYGDHDGAWVDETTPLTPTAARGRWRVMAEQQWQAVPNLPLHVFRLAGIYGPGRGPFSKLGKGGIRRIIKPGQVFSRIHVEDIAQVLAASMARPDPGAVYNVCDDEPVPPQDVIAYAAELQGLPLPPAVDFDKADLTPMARSFYSENKRVRNDRIKEELGVRLKYPNYRVGLEALQADAET
not failed
2. MSLSHKAWQNAHAMYENDACAKALGIDIISMDEGFAVVTMTVTAQMLNGHQSCHGGQLFSLADTAFAYACNSQGLAAVASACTIDFLRPGFAGDTLTATAQVRHQGKQTGVYDIEIVNQQQKTVALFRGKSHRIGGTITGEAEGGSHHHHHH
not failed

---

Experimental details: label from the status in PepcDB records
Assay readout: protein production

1. MKVSIIVPCYSVASKLPRCVHNLLAQTFTDWELILIDDGSTDNTWDICNSFTKNNAHIHAVHKENGGVSSARNTGIEIAKGEFITFIDSDDYVKPDYLQKLVEGQEADLVLCGFRSSTGIDFTPEPQYLIGDDLSKNIQAIVENDYLLYSPWCKLFRRDIIQKHQHRFDPEIRLGEDTIFCYKYLLYCSSIKVVASNSYFYDGVWGGYKKYVLTRQEVEYLDKAEITTLHDINQHFNCRIDLTYRGYHVAMLKGLYEKFRDYDTFEMYTRTHDVLPPEHFFANHKLSYIFWGIVELETLYVDKEYCAGKLFMQRLHHFFTIPTNQLLSYSYKMRLIHYLVKSKHYTMAHVLLIFLSILKHLEHHHHHH
failed
2. MVINSTVWQCEATGKENLTYEEAVKSERAARKKMEQFKQSLRAPVLLVVEHAQQSAVNTLNMIVAKFLRKRYFIGEEVSVQAKKNATYTVLGVKLDKNMPEPLNGIYEDTDNLVYRLRPNKGDPSAELDLPFRQLRRSRMEFNLENLSMFIKSNVSRVDGLLRPKPEA
failed

---

Experimental details: label from the status in PepcDB records
Assay readout: protein production

1) MTAGGPLITAALTAYDAEDTIAGALASALAQDWPSLEVLILDDASRDGTRKVIEAVITERGDQGPPIRLIALDKNGGVAQARNRLLAEAKGEVIAFFDDDDISAPDRLRRQYARLIAAERETGAGLVFCHAARCQILPDGGERLEGTMGEEGGPIPGGDAVVRRILLGTLSPGVRGSCATCSQMARTASYRALGGFDPTLRRAEDTDLCLRAALGGAVFAGLSAPLVTQRLTLGGDKTPREDHRAYQALLNKHRATLAKTGWLTFYARWQDIRLAHLEGRTGRVVLGLVGLGLSHPLKLARKIVWSLPAAGTRAAYHRQHRKDTS
failed
2) PRFLFVHGWGFDRNFWEPVRRAIGQHNGDSLDFGYFGQSKLEYDWSQPFIAVGHSLGFLWLLQQPLAACIQLISINGFSRFFAGSDWPFGVPQRVTKRMQLALHRDAKKTLDQFYETVGFFDTSEKRYDLAALDNGLEFLMTQDNRSIAKKQAHKIAIMASDQDPIVPVSLTKACFPTPTPILWNKDGGHLLPITDPDSCANFIRDVVK
failed
3) MATLLGFSQTKFHHCGVWISTPPCSSSSTVVSMVGLNRTDSKKLRSDFLGQIGYEDRRQVRHSYCRSSLAVKMSWDGPLASVKLIIQGKNLELSEPIKQHVEEKVGKSVQKHSHLVREVDVRLSVRGGEFGKGPRIRRCEVTLFTKKHGVVRAEEDAETVYACIDLVSTIIQRKLRKIKEKDSDHGRHMKGFNRLKVREPVIEPVVEDVEDSTDSSVGEEEEEDDLIKEIVRTKTFEMPPLTVAEAVEQLELVSHDFYGFQNEETGEINIVYKRKEGGYGLIIPKKDGKAEKVEPLPTEQLNEHSFAE
failed
